- Tested on: 857933-349-R-J2-PDC complex spheroids, viability;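 note: spheroids exposed to compounds for one week before readout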
- EXPERIMENTAL_DETAILS: Anticancer human tumor 857933-349-R-J2-PDC patient-derived colon adenocarcinoma cell line growth inhibition [GQUAD]
- EXPERIMENTAL_SETUP: second compound 0.1 µM; first compound 1 µM; active compounds read low
Note to self: viability, T/C under 80% means rule met, ties and anything higher get rule not met.

- COMPOUND: "C=CCn1c(=O)c2cnc(Nc3ccc(N4CCN(C)CC4)cc3)nc2n1-c1cccc(C(C)(C)O)n1 + Cc1cnc(CNC(=O)c2c(=O)c3ccc(N4CCCN(C)CC4)nc3n3c2sc2ccccc23)cn1"
  CATEGORY: "rule met"
- COMPOUND: "CC1COCCN1c1cc(C2(O)CC3CCC(C2)O3)c2cnn(-c3ccn[nH]3)c2n1 (configuration not stated) + Cc1cnc(CNC(=O)c2c(=O)c3ccc(N4CCCN(C)CC4)nc3n3c2sc2ccccc23)cn1"
  CATEGORY: "rule met"
- COMPOUND: "CC1COCCN1c1cc(C2(O)CC3CCC(C2)O3)c2cnn(-c3ccn[nH]3)c2n1 (configuration not stated) + CN(C)c1ccc(Nc2c3ccc(NC(=O)CCN4CCCC4)cc3nc3cc(NC(=O)CCN4CCCC4)ccc23)cc1"
  CATEGORY: "rule met"
- COMPOUND: "C#Cc1c(F)ccc2cc(O)cc(-c3ncc4c(N5CC6CCC(C5)N6)nc(OCC56CCCN5CC(F)C6)nc4c3F)c12 (configuration not stated) + Cc1cnc(CNC(=O)c2c(=O)c3ccc(N4CCCN(C)CC4)nc3n3c2sc2ccccc23)cn1"
  CATEGORY: "rule met"
- COMPOUND: "O=c1[nH]cc(F)c(=O)[nH]1 + Cc1[nH]c2ccc(F)cc2c1-c1nc2c3cccnc3c3ncccc3c2[nH]1"
  CATEGORY: "rule met"
- COMPOUND: "CC(C)(O)C1CCC(Nc2ccc3ncc(-c4cccc(C(F)(F)F)c4)n3n2)CC1 (configuration not stated) + Cc1[nH]c2ccc(F)cc2c1-c1nc2c3cccnc3c3ncccc3c2[nH]1"
  CATEGORY: "rule met"
- COMPOUND: "CCCS(=O)(=O)Nc1ccc(F)c(C(=O)c2c[nH]c3ncc(-c4ccc(Cl)cc4)cc23)c1F + Cc1cnc(CNC(=O)c2c(=O)c3ccc(N4CCCN(C)CC4)nc3n3c2sc2ccccc23)cn1"
  CATEGORY: "rule met"
- COMPOUND: "Nc1ccn(C2OC(CO)C(O)C2(F)F)c(=O)n1 (configuration not stated) + CN(C)c1ccc(Nc2c3ccc(NC(=O)CCN4CCCC4)cc3nc3cc(NC(=O)CCN4CCCC4)ccc23)cc1"
  CATEGORY: "rule met"
- COMPOUND: "Cc1cccc(N(C)C(=O)C2C(O)CCN2c2nc(C)cc(C(F)(F)F)c2C#N)c1 (configuration not stated) + CN(C)c1ccc(Nc2c3ccc(NC(=O)CCN4CCCC4)cc3nc3cc(NC(=O)CCN4CCCC4)ccc23)cc1"
  CATEGORY: "rule not met"
- COMPOUND: "COc1cccc2c1C(=O)c1c(O)c3c(c(O)c1C2=O)CC(O)(C(=O)CO)CC3OC1CC(N)C(O)C(C)O1 (configuration not stated) + Cc1cnc(CNC(=O)c2c(=O)c3ccc(N4CCCN(C)CC4)nc3n3c2sc2ccccc23)cn1"
  CATEGORY: "rule met"
- COMPOUND: "CC1COCCN1c1cc(-c2ccnn2C)c2ccnc(-c3ccn[nH]3)c2n1 (configuration not stated) + Cc1[nH]c2ccc(F)cc2c1-c1nc2c3cccnc3c3ncccc3c2[nH]1"
  CATEGORY: "rule met"
- COMPOUND: "O=c1[nH]cc(F)c(=O)[nH]1 + CN(C)c1ccc(Nc2c3ccc(NC(=O)CCN4CCCC4)cc3nc3cc(NC(=O)CCN4CCCC4)ccc23)cc1"
  CATEGORY: "rule not met"
- COMPOUND: "COc1ccc([C@@H](O)c2cc(-c3ncnc4cc(N5CCOCC5)ccc34)c(F)cc2Cl)nn1 + Cc1cnc(CNC(=O)c2c(=O)c3ccc(N4CCCN(C)CC4)nc3n3c2sc2ccccc23)cn1"
  CATEGORY: "rule met"
- COMPOUND: "O=C(NO)c1cnc(N2CCN(S(=O)(=O)c3ccc4ccccc4c3)CC2)nc1 + Cc1cnc(CNC(=O)c2c(=O)c3ccc(N4CCCN(C)CC4)nc3n3c2sc2ccccc23)cn1"
  CATEGORY: "rule met"
- COMPOUND: "CC(C)n1c(=O)n(C)c2cnc3cc(F)c(-c4ccc(OCCCN5CCCCC5)nc4)cc3c21 + Cc1[nH]c2ccc(F)cc2c1-c1nc2c3cccnc3c3ncccc3c2[nH]1"
  CATEGORY: "rule not met"
- COMPOUND: "C#Cc1c(F)ccc2cc(O)cc(-c3ncc4c(N5CC6CCC(C5)N6)nc(OCC56CCCN5CC(F)C6)nc4c3F)c12 (configuration not stated) + CN(C)c1ccc(Nc2c3ccc(NC(=O)CCN4CCCC4)cc3nc3cc(NC(=O)CCN4CCCC4)ccc23)cc1"
  CATEGORY: "rule not met"
- COMPOUND: "COc1cc(C2c3cc4c(cc3C(OC3OC5COC(C)OC5C(O)C3O)C3COC(=O)C23)OCO4)cc(OC)c1O (configuration not stated) + CN(C)c1ccc(Nc2c3ccc(NC(=O)CCN4CCCC4)cc3nc3cc(NC(=O)CCN4CCCC4)ccc23)cc1"
  CATEGORY: "rule met"
- COMPOUND: "CCCS(=O)(=O)Nc1ccc(F)c(C(=O)c2c[nH]c3ncc(-c4ccc(Cl)cc4)cc23)c1F + Cc1[nH]c2ccc(F)cc2c1-c1nc2c3cccnc3c3ncccc3c2[nH]1"
  CATEGORY: "rule not met"
- COMPOUND: "CC1COCCN1c1cc(-c2ccnn2C)c2ccnc(-c3ccn[nH]3)c2n1 (configuration not stated) + CN(C)c1ccc(Nc2c3ccc(NC(=O)CCN4CCCC4)cc3nc3cc(NC(=O)CCN4CCCC4)ccc23)cc1"
  CATEGORY: "rule met"
- COMPOUND: "O=c1[nH]cc(F)c(=O)[nH]1 + Cc1cnc(CNC(=O)c2c(=O)c3ccc(N4CCCN(C)CC4)nc3n3c2sc2ccccc23)cn1"
  CATEGORY: "rule met"
- COMPOUND: "O=C(c1cc(Cc2n[nH]c(=O)c3ccccc23)ccc1F)N1CCN(C(=O)C2CC2)CC1 + CN(C)c1ccc(Nc2c3ccc(NC(=O)CCN4CCCC4)cc3nc3cc(NC(=O)CCN4CCCC4)ccc23)cc1"
  CATEGORY: "rule not met"
